Numbers sourced from the SangsterLogP compilation.

Below, each entry is listed with its recorded logP.
Respond numerically, and do not add a unit to the figure.

Record excerpt, results attached:
CO[C@H]1CCCC[C@@]1(c1ccccc1)N1CCCCC1 | 4.73
C[C@H]1CCCC[C@@]1(c1cccs1)N1CCCCC1 | 7.29
CC1CCC(c2ccccc2)(N2CCCCC2)CC1 (centres undefined) | 5.66

For the next question, use this molecule.
Suppose we examine the molecule `C[C@H]1CCC[C@](c2ccccc2)(N2CCCCC2)C1` ; what logP value has been reported?
5.86

---

Below, each entry is listed with its recorded logP.
Respond numerically, and do not add a unit to the figure.

Record excerpt, results attached:
C[C@@H]1CC(C)(C)C[C@](c2ccccc2)(N2CCCCC2)C1 | 6.35
c1csc(C2(N3CCCCC3)CCCCC2)c1 | 6.02
CC(C)(C)C1CCC(c2ccccc2)(N2CCCCC2)CC1 (stereo unspecified) | 6.67
CO[C@@H]1CCCC[C@]1(c1cccs1)N1CCCCC1 | 4.89
C[C@H]1CCCC[C@@]1(c1ccccc1)N1CCCCC1 | 6.75

Suppose we examine the compound `c1ccc(C2(N3CCCCC3)CCCCC2)cc1` ; what logP value has been reported?
5.74
